Hey, just so you know, these numbers are from ChEMBL document CHEMBL1201862.

# Test system: PC-3
# measurementNotes: NCI tumour cell line growth inhibition, 48 h
Calls of active or inactive are those of the source. No stated cut-off is given here; in the data, active = GI50 up to about 1.1 µM and inactive = higher.
# GI50 annotations

# molecule, measurementName, result
rows = [
    ("Cn1c(=O)c2[nH]c(N=O)nc2n(C)c1=O", "GI50", "> 100 µM (inactive)"),
    ("CCOc1cc(/C=N/c2ccc(Oc3ccc(Cl)cc3)c(Cl)c2)ccc1O", "GI50", "31.8 µM (inactive)"),
    ("c1ccc(/N=c2/[nH]c3ccccc3s/c2=N/c2ccccc2)cc1", "GI50", "> 100 µM (inactive)"),
    ("COc1ccc([C@H]2CC(=O)C[C@H](c3ccc(OC)cc3)C23C(=O)c2ccccc2C3=O)cc1", "GI50", "4.21 µM (inactive)"),
]

Record summary for CS/C(=N\C#N)NC1CC(n2cc(C)c(=O)[nH]c2=O)OC1CO (stereo unspecified) : reported GI50 = > 100 µM (inactive)

Record summary for CCOC(=O)c1c(Br)c(-c2ccc(OC)cc2)c(Br)n1C : reported GI50 = 11.1 µM (inactive)

Record summary for CCOC(=O)Cn1c(C(F)(F)F)nc2nc(Cl)c(Cl)nc21 : reported GI50 = 32.2 µM (inactive)

Record summary for C=C(Cl)CN1c2ccccc2C=Cc2ccccc21 : reported GI50 = 9.12 µM (inactive)

Record summary for CC(C)CCCC(C)[C@H]1CC[C@H]2NCCCC[C@]12C (stereo partly specified) : reported GI50 = 3.07 µM (inactive)

Record summary for CCCc1cc(COC)c(C#N)c(O)n1 : reported GI50 = > 100 µM (inactive)

Record summary for COc1cccc(C2c3cc4c(cc3OC(NNC(N)=O)C2C)OCO4)c1OC (stereo unspecified) : reported GI50 = 19.4 µM (inactive)
